- ASSAY_EXPLANATION: Urinary and fecal excretion after oral dosing of rats
- Type: in vivo, male Sprague Dawley rats
- MEASUREMENT_SETUP: rat, urine, po, 25 mg/kg, rat 2, oral 25 mg/kg DDC; compound detected: DDC; read-out: Percent Dose Excreted as DDC, 0-24 hr Urine (second entry so headed)
MEASUREMENT_NAME: dose excreted at 24 h

COMPOUND: Nc1ccn([C@H]2CC[C@@H](CO)O2)c(=O)n1 [DDC, 2',3'-Dideoxycytidine, reference compound]
MEASUREMENT_NAME: dose excreted at 24 h
RESULT_VALUE: 32.2%

* * *

- ASSAY_EXPLANATION: Urinary and fecal excretion after oral dosing of rats
- Assay type: in vivo, male Sprague Dawley rats
- MEASUREMENT_SETUP: rat, urine, po, 25 mg/kg, two rats, oral 25 mg/kg DDC or equimolar, urine 72 hours; read-out: Average urinary excretion as DDC
MEASUREMENT_NAME: dose excreted at 72 h (%)

COMPOUND: Nc1ccn([C@H]2CC[C@@H](CO)O2)c(=O)n1 [DDC, 2',3'-Dideoxycytidine, reference compound]
RESULT_VALUE: 43

* * *

- ASSAY_EXPLANATION: Urinary and fecal excretion after oral dosing of rats
- Format: in vivo, male Sprague Dawley rats
- MEASUREMENT_SETUP: rat, feces, po, 25 mg/kg, two rats, oral 25 mg/kg, feces; DDC; read-out: Average fecal excretion of parent compound

MOLECULE: Nc1ccn([C@H]2CC[C@@H](CO)O2)c(=O)n1 [DDC, 2',3'-Dideoxycytidine, reference compound]
dose excreted (%): 28.1

* * *

- Test system: HIV
- ASSAY_EXPLANATION: Antiviral activity against HIV (method of Mitsuya et al.)
- Format: cell-based
- MEASUREMENT_SETUP: Human immunodeficiency virus 1; HIV
pIC50: −log10 of the molar value.
Overview of recorded pIC50 for various compounds

COMPOUND: CCC(=O)OC[C@@H]1CC[C@H](n2ccc(N)nc2=O)O1 [Example 3, 2',3'-Dideoxy-5'-O-propionylcytidine]
pIC50: 5.80
//
COMPOUND: CCC(=O)Nc1ccn([C@H]2CC[C@@H](CO)O2)c(=O)n1 [Example 2, 2',3'-Dideoxy-N^4-propionylcytidine]
pIC50: 4.44
